- system tested: T1, EsCas13d, nuclease-dead (Eubacterium siraeum, UniProt B0MS50, R295A;H300A;R849A;H854A)
- T1 sequence: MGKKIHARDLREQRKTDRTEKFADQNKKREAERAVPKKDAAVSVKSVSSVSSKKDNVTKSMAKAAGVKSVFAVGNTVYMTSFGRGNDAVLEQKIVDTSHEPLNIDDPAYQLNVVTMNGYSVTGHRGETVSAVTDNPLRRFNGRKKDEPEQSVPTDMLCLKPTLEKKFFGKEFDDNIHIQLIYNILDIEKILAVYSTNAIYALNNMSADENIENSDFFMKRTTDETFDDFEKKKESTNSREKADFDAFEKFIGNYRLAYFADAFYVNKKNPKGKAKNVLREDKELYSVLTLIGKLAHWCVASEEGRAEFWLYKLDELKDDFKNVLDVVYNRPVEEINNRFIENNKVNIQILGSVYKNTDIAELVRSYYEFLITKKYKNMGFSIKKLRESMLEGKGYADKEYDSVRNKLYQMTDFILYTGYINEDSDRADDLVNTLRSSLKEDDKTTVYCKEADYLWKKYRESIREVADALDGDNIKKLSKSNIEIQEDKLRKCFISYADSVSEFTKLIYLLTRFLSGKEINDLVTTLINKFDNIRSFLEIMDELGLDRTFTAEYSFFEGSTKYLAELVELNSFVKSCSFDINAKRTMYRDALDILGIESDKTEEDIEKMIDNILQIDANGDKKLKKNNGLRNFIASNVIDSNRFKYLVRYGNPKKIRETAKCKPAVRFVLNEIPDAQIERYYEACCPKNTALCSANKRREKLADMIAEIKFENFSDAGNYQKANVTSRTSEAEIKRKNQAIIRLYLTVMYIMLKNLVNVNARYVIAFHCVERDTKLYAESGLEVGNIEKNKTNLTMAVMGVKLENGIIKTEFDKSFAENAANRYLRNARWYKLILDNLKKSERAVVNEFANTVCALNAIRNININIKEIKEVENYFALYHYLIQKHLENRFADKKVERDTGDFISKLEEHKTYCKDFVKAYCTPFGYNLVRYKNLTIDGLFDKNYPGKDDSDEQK
- measurement protocol: crRNA (strand 1, pre-loaded); Mg2+; 40 mM Tris-HCl pH 7.5, 150 mM NaCl, 6 mM MgCl2, 1 mM DTT, 0.1% Tween-20, 0.2 mg/ml BSA; 25 C; 10 min per concentration, then washed
- conditions used: tags: His6-TwinStrep-SUMO cleaved; N-terminal SNAP kept (SNAP-Surface 488); label: 3' end held by stalled T7 RNA polymerase
Entries and their measured Kd follow.

{"binder": "target 1 A14G,C22A (mixed) RNA 1: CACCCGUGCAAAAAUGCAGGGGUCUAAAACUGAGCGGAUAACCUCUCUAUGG RNA 2: GGGAAUGGAUCCACAUCUACGAAUUCGUAACAUAGAGGGGUUAUCCGCUCACCGAGAUCGGAAGAGCACACGU", "unit annotation": "nM", "Kd": 40}
{"binder": "target 3 insA 3' of 6,insA 3' of 1 (mixed) RNA 1: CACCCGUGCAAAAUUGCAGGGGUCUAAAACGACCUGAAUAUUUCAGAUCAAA RNA 2: GGGAAUGGAUCCACAUCUACGAAUUCGUUUUUGAUCUGAAAUAUUCAAGGUCAUGCAGAUCGGAAGAGCACACGU", "unit annotation": "nM", "Kd": 53}
{"binder": "target 1 MT 5'PFS GGA 3'PFS CGC (mixed) RNA 1: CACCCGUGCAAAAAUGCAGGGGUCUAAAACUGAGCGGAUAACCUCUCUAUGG RNA 2: GGGAAUGGAUCCACAUCUACGAAUUCGGACCAUAGAGAGGUUAUCCGCUCACGCAGAUCGGAAGAGCACACGU", "unit annotation": "nM", "Kd": 28.5}
{"binder": "target 2 MT 5'PFS UCA 3'PFS CAG (mixed) RNA 1: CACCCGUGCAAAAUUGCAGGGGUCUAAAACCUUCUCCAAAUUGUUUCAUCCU RNA 2: GGGAAUGGAUCCACAUCUACGAAUUCUCAAGGAUGAAACAAUUUGGAGAAGCAGAGAUCGGAAGAGCACACGU", "unit annotation": "nM", "Kd": 3.1}

Reference for the values: paper PMC10786891
